Each recorded value in this set is attributed to the supplement of paper PMC10126150.

Below, each entry is listed alongside its reported switch fluorescence ratio.
- System: ATP;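 note: ATP exposure 15 min at 22 °C before imaging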
- procedure_details: switch fluorescence ratio, 500 uM ATP over buffer (Cy3 cluster intensity, sum of 5 cycles each) (fold (ratio)); higher = stronger signal-on switching upon ATP binding; sequences stand for … in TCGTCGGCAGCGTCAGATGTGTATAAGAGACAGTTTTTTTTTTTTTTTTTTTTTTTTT…TC
- condition_set: aptamer strand: ATP DNA aptamer (quencher-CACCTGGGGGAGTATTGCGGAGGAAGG + anchor), 100 nM annealed; ATP concentration: 500 uM
Lab note: write the figure by itself, no unit.

Sample records with switch fluorescence ratio:
construct_sequence	tested_target	switch fluorescence ratio
GGGTGCATGT	ATP	0.99
GCGGGGGGTA	ATP	1.01
AAATATTTTA	ATP	0.999
GTTAACTCTG	ATP	0.98
GTGGATCAAA	ATP	1.02
TGACTATTAA	ATP	0.985

So what's the measured switch fluorescence ratio for this one? `GGTGGAAGCT`
1.01

Report switch fluorescence ratio for `TTGATGAACA` please.
1

Query (sequence): `CGTATTCGTA` ; field requested: switch fluorescence ratio
0.978

* * *

Entries and their switch fluorescence ratio values follow.
- System: ATP;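 note: ATP exposure 15 min at 22 °C before imaging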
- procedure_details: switch fluorescence ratio, 500 uM ATP over buffer (Cy3 cluster intensity, sum of 5 cycles each) (fold (ratio)); higher = stronger signal-on switching upon ATP binding; sequences stand for … in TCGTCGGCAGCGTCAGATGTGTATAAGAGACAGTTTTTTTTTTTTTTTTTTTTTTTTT…TC
- condition_set: aptamer strand: ATP DNA aptamer (quencher-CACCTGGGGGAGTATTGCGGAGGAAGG + anchor), 100 nM annealed; ATP concentration: 500 uM
Number only, please.

Reference set, count: 8
construct_sequence	assay_readout	observed_result
TTGGTTCGGA	switch fluorescence ratio	0.993
CGTGAAAAGA	switch fluorescence ratio	0.986
CTAGGCTTTT	switch fluorescence ratio	1.02
GGTAATTAAA	switch fluorescence ratio	0.974
TTTTGAGGGA	switch fluorescence ratio	0.988
TAAGATGAGA	switch fluorescence ratio	0.936
CACTAGATGG	switch fluorescence ratio	0.992
TCTTTCATGT	switch fluorescence ratio	1.02

// moving on: another record for switch fluorescence ratio
Which switch fluorescence ratio reading was recorded for the sequence `GTTTGAAGCC` ?
1.04

* * *

- Tested on: ATP;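 note: ATP exposure 15 min at 22 °C before imaging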
- procedure_details: switch fluorescence ratio, 500 uM ATP over buffer (Cy3 cluster intensity, sum of 5 cycles each) (fold (ratio)); higher = stronger signal-on switching upon ATP binding; sequences stand for … in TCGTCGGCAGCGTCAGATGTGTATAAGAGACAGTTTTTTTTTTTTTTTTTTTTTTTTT…TC
- condition_set: aptamer strand: ATP DNA aptamer (quencher-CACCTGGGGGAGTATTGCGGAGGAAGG + anchor), 100 nM annealed; ATP concentration: 500 uM
Parameter switch fluorescence ratio: see the listing below.
API doc: respond with a numeric literal and nothing else, no unit.

Consider the reported switch fluorescence ratio for these sequences:
construct_sequence	switch fluorescence ratio
AAGTGCTTGA	1
TTGTAAAATG	0.996
CATTGGAAGA	1.02
AGTGTCTTTG	0.954
CGCATGTCTC	1.81
GAGTGAGGCA	0.981
CCACAATTTT	1.43
GGATTTGAGG	1

Checklist item: switch fluorescence ratio tested on ATP, entry `GGGATGACGA` , value?;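 note: ATP exposure 15 min at 22 °C before imaging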
0.98

// fetch ATP switch fluorescence ratio for `TCTCCCGGCA`
1.34

Record lookup: for ATP, what switch fluorescence ratio belongs to `GAGCTACGTA` ?
1.04

Give ATP switch fluorescence ratio for `GTAACAGATT`
0.976

Tell me reported switch fluorescence ratio for `AGAATTAGGC` , tested with ATP.
0.999

* * *

- Test system: ATP;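 note: ATP exposure 15 min at 22 °C before imaging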
- procedure_details: switch fluorescence ratio, 500 uM ATP over buffer (Cy3 cluster intensity, sum of 5 cycles each) (fold (ratio)); higher = stronger signal-on switching upon ATP binding; sequences stand for … in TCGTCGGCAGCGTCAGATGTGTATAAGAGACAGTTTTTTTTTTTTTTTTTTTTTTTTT…TC
- condition_set: aptamer strand: ATP DNA aptamer (quencher-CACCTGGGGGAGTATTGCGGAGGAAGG + anchor), 100 nM annealed; ATP concentration: 500 uM
Recorded switch fluorescence ratio for the following sequences
Form field (numeric): enter value without unit.

The following sequences have reported results that may help.
construct_sequence	switch fluorescence ratio
GCTTTTAGGT	0.968
GAGGCTGTGC	1.05
TTGCAGGGGT	1.14

Value wanted: switch fluorescence ratio (ATP) of entry `TTTCAAAGTA`
0.966

Lab note: need switch fluorescence ratio with ATP for entry `TGCCTTGCCA` , please look it up.
1

Requested read-out switch fluorescence ratio, target or system ATP, entry `TTCCATTCGA`;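 note: ATP exposure 15 min at 22 °C before imaging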
0.992

Return switch fluorescence ratio measured with ATP given this sequence: `GAATAAAATA`
1.02

Lab note: need switch fluorescence ratio for `GGCAACCATA` on ATP, anyone have it?
1.02

For the record `TGGAGTGGGT` , what value of switch fluorescence ratio is listed for ATP?
1.01

Give recorded switch fluorescence ratio with ATP for the following sequence: `GGGAACGTCG`
1.01

What measured switch fluorescence ratio is associated with `GGGATTTTCG` on ATP?
0.98

* * *

- System: ATP;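 note: ATP exposure 15 min at 22 °C before imaging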
- procedure_details: switch fluorescence ratio, 500 uM ATP over buffer (Cy3 cluster intensity, sum of 5 cycles each) (fold (ratio)); higher = stronger signal-on switching upon ATP binding; sequences stand for … in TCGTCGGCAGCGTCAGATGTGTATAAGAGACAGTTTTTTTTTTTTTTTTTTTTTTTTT…TC
- condition_set: aptamer strand: ATP DNA aptamer (quencher-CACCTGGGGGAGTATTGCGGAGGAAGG + anchor), 100 nM annealed; ATP concentration: 500 uM
assay_readout: switch fluorescence ratio
Give your answer as a number; write no unit.

# annotated cases, reported switch fluorescence ratio shown
construct_sequence	observed_result
AGGCGGGGAG	1.02
GATGTGCGAG	1.01

Look up switch fluorescence ratio: `TCGTCCCTGT`
1.07

Requested field: switch fluorescence ratio. Item: `ATGGTGAGCG`
0.978

Need switch fluorescence ratio, item `ATAAATTGCA`
0.998

* * *

- Test system: ATP;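 note: ATP exposure 15 min at 22 °C before imaging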
- procedure_details: switch fluorescence ratio, 500 uM ATP over buffer (Cy3 cluster intensity, sum of 5 cycles each) (fold (ratio)); higher = stronger signal-on switching upon ATP binding; sequences stand for … in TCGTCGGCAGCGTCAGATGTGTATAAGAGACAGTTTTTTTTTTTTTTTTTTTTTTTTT…TC
- condition_set: aptamer strand: ATP DNA aptamer (quencher-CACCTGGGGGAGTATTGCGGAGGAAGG + anchor), 100 nM annealed; ATP concentration: 500 uM
assay_readout: switch fluorescence ratio
Keep it simple and answer with nothing but the number.

Before answering, review these 5 worked examples.
construct_sequence	tested_target	observed_result
TTTCAGTCCC	ATP	0.993
AAATGATTGG	ATP	0.982
AGATATTTGG	ATP	0.994
AAATTTCGTT	ATP	0.966
ATCATGTCTA	ATP	1.04

Need switch fluorescence ratio of `GCGGCTAGTC` , thanks.
1.01

Could you tell me which switch fluorescence ratio is on file for `CAGCTGGGAG` ?
1.03

Query (sequence): `CGCAGATTCG` ; field requested: switch fluorescence ratio
1.01

Fill in: switch fluorescence ratio of `TCATTGGACT` is ___
0.98

* * *

- Tested on: ATP;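 note: ATP exposure 15 min at 22 °C before imaging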
- procedure_details: switch fluorescence ratio, 500 uM ATP over buffer (Cy3 cluster intensity, sum of 5 cycles each) (fold (ratio)); higher = stronger signal-on switching upon ATP binding; sequences stand for … in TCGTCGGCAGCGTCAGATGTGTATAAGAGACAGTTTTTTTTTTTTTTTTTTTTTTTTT…TC
- condition_set: aptamer strand: ATP DNA aptamer (quencher-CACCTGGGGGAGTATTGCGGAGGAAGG + anchor), 100 nM annealed; ATP concentration: 500 uM
assay_readout: switch fluorescence ratio
Form: value (number only, do not type unit).

Value lookup for switch fluorescence ratio; key = `CCTAAGAATG`
1.04

Suppose we examine the sequence `TTTCTATGGA` ; what switch fluorescence ratio value has been reported?
1.01

Value lookup for switch fluorescence ratio; key = `CCGGTATTGA`
0.994

Would you mind telling me what switch fluorescence ratio value was observed for `AGTTAGAGTG` ?
0.976

What measured switch fluorescence ratio goes with `TATAGTGGGT` ?
1.01

Tell me the measured switch fluorescence ratio of `TTGTAGGGGA` , please.
1.04

Would you mind telling me what switch fluorescence ratio value was observed for `AACGCCATGC` ?
2.68

Fill blank: measured switch fluorescence ratio of the sequence `AATCTAAGGT` is ____.
0.983

Report switch fluorescence ratio for `CGGTTATTGA` please.
1.02

Report switch fluorescence ratio for `ACGTCAGTCA` please.
0.976

* * *

Below, each of the sequences is paired with its reported switch fluorescence ratio value.
- System: ATP;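 note: ATP exposure 15 min at 22 °C before imaging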
- procedure_details: switch fluorescence ratio, 500 uM ATP over buffer (Cy3 cluster intensity, sum of 5 cycles each) (fold (ratio)); higher = stronger signal-on switching upon ATP binding; sequences stand for … in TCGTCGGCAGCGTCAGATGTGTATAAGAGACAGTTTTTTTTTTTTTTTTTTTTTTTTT…TC
- condition_set: aptamer strand: ATP DNA aptamer (quencher-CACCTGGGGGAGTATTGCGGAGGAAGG + anchor), 100 nM annealed; ATP concentration: 500 uM
// keep it numeric: no unit symbol after the value

construct_sequence	switch fluorescence ratio
CGGAGTATAT	1.87
AGTTAATGCT	0.986

Quick check: switch fluorescence ratio of `GCAGGTTTGG` ?
0.991
